Study system: T1, human κ-opioid receptor (human, UniProt P41145 1-380)
T1 construct: whole, on cells; Assayed as membranes of CHO cells expressing the receptor; also called KOR
Protocol text: ratio of Ki values from radioligand competition, reference MOR
Non-standard residues stand in square brackets, D forms with d. No end group written: not given here. *: point of attachment. β‑lactoside = OC[C@H]1O[C@@H](O[C@H]2[C@H](O)[C@@H](O)[C@H](*)O[C@@H]2CO)[C@H](O)[C@@H](O)[C@H]1O; βGlc = OC[C@H]1O[C@@H](*)[C@H](O)[C@@H](O)[C@@H]1O; β‑D‑xyloside = O[C@@H]1[C@@H](O)[C@H](*)OC[C@H]1O; NMeF = CN[C@@H](Cc1ccccc1)C(=O)O
Each record here notes measured Ratio µ:δ:κ (Ki at κ relative to µ).
Reply with the value as a number alone.

Solved cases below.
| Binder | Assay endpoint | Assay value |
| --- | --- | --- |
| YAGFS (HELM PEPTIDE1{Y.[dA].G.[meF].S.[am]}$$$$V2.0; N-terminus assumed; SMILES C[C@@H](NC(=O)[C@@H](N)Cc1ccc(O)cc1)C(=O)NCC(=O)N(C)[C@@H](Cc1ccccc1)C(=O)N[C@@H](CO)C(N)=O, Made by Fmoc synthesis on Rink amide resin; also called peptide 2) [DAMGO analog compound (2), C-terminal L-serine amide] | Ratio µ:δ:κ (Ki at κ relative to µ) | 280 |
| Y[dA]G[NMeF]S(βGlc)-NH2 (N-terminus assumed; SMILES C[C@@H](NC(=O)[C@@H](N)Cc1ccc(O)cc1)C(=O)NCC(=O)N(C)[C@@H](Cc1ccccc1)C(=O)N[C@@H](CO[C@@H]1O[C@H](CO)[C@@H](O)[C@H](O)[C@H]1O)C(N)=O, Glycopeptide; also called glycopeptide 4) [DAMGO analog compound (4), C-terminal L-serine amide beta-D-glucoside] | Ratio µ:δ:κ (Ki at κ relative to µ) | 130 |
| Y[dA]G[NMeF]S(β‑D‑xyloside)-NH2 (N-terminus assumed; SMILES C[C@@H](NC(=O)[C@@H](N)Cc1ccc(O)cc1)C(=O)NCC(=O)N(C)[C@@H](Cc1ccccc1)C(=O)N[C@@H](CO[C@@H]1OC[C@@H](O)[C@H](O)[C@H]1O)C(N)=O, Glycopeptide; also called glycopeptide 3) [DAMGO analog compound (3), C-terminal L-serine amide beta-D-xyloside] | Ratio µ:δ:κ (Ki at κ relative to µ) | 120 |

Please examine the following record next.
For this binder ( Y[dA]G[NMeF]S(β‑lactoside)-NH2 (N-terminus assumed; SMILES C[C@@H](NC(=O)[C@@H](N)Cc1ccc(O)cc1)C(=O)NCC(=O)N(C)[C@@H](Cc1ccccc1)C(=O)N[C@@H](CO[C@@H]1O[C@H](CO)[C@@H](O[C@@H]2O[C@H](CO)[C@H](O)[C@H](O)[C@H]2O)[C@H](O)[C@H]1O)C(N)=O, Glycopeptide; also called glycopeptide 5) [DAMGO analog compound (5), C-terminal L-serine amide beta-lactoside] ), measured Ratio µ:δ:κ (Ki at κ relative to µ) is 530
